Target: UniProtKB P07861
Sequence (P07861 whole entry): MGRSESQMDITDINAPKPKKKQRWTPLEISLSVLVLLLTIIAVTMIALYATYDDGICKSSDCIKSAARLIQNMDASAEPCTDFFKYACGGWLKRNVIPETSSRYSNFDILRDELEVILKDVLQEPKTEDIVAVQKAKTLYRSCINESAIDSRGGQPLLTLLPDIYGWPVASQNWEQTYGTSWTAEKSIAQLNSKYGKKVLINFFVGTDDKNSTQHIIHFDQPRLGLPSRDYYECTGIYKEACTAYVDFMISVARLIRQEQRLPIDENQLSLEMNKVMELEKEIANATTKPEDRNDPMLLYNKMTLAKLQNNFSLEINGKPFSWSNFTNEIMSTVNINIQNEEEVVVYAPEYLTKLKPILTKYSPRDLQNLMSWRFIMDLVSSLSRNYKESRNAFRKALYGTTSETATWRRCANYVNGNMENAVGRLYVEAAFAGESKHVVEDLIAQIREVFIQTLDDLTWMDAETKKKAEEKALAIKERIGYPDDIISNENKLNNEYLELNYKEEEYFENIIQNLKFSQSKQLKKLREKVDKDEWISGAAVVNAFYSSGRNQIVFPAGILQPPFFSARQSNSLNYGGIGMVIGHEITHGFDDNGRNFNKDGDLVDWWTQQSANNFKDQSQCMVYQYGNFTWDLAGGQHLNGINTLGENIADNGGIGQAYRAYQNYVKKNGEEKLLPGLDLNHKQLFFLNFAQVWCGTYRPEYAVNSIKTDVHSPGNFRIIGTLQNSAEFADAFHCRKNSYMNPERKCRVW
Where a name gives a salt, the structure may show the parent alone.

# Compound, IC50 / nM
records = [
    ("O=C(O)CNC(=O)[C@H](Cc1ccccc1)NP(=O)(O)O [compound 2, trisodium salt]", 15),
]
